Data origin: patent US9302999B2

- System: buckwheat, wild (wild buckwheat, Polygonum convolvulus)
- assay: Test D pre-/postemergence: buckwheat, wild
- Format: in vivo
- study conditions: Preemergence; 125 g ai/ha; scale 0 to 100
Entries and their Plant response rating, Buckwheat, Wild values follow.
quantity name: Plant response rating, Buckwheat, Wild

# smiles code, recorded number
records = [
    ("Cc1nn(-c2ccc(C(F)(F)F)c(F)c2)nc1Oc1ccnc(C(F)(F)F)c1", 50),
    ("Cc1nn(-c2ccc(C(F)(F)F)cc2)nc1Oc1ccnc(C(F)(F)F)c1", 70),
    ("CCc1nn(-c2ccc(C(F)(F)F)cc2)nc1Cc1ccnc(C(F)(F)F)c1", 70),
    ("COc1nn(-c2ccc(C(F)(F)F)cc2)nc1Cc1ccnc(C(F)(F)F)c1", 100),
    ("FC(F)(F)COc1nn(-c2ccc(C(F)(F)F)cc2)nc1Cc1ccnc(C(F)(F)F)c1", 35),
]

###

# key: entry, value: Crabgrass, Large plant response rating
- Test system: crabgrass, large (large crabgrass, Digitaria sanguinalis)
- assay: Test A pre-/postemergence: crabgrass, large
- Format: in vivo
- study conditions: Postemergence, 1000 g ai/ha; visual rating on 0 to 100 scale (0 no effect, 100 complete control), approximately ten days

# smiles code, Crabgrass, Large plant response rating
measured = [
    ("Cc1nn(-c2ccc(C(F)(F)F)cc2)nc1Cn1nc(C(F)(F)F)cc1C", 90),
    ("CCc1nn(-c2ccc(C(F)(F)F)cc2)nc1Cn1cnc(C(F)(F)F)n1", 90),
    ("Cc1nn(-c2ccc(F)cc2)nc1Cn1cnc(C(F)(F)F)n1", 80),
    ("Cc1nn(-c2ccc(F)cc2)nc1C(=O)c1ccnc(C(F)(F)F)c1", 100),
]

###

- System: nutsedge, yellow (yellow nutsedge, Cyperus esculentus)
- assay: Test F pre-/postemergence: nutsedge, yellow
- Assay type: in vivo
- study conditions: Preemergence, 31 g ai/ha; scale 0 to 100, 0 no effect, 100 complete control
Entries and their Plant response rating, Nutsedge, Yellow values follow.
quantity name: Plant response rating, Nutsedge, Yellow

# smiles code, system tested, quantity name, recorded number
data = [
    ("CCc1nn(-c2ccc(C(F)(F)F)cc2)nc1Oc1ccnc(C(F)(F)F)c1", "nutsedge, yellow (yellow nutsedge, Cyperus esculentus)", "Plant response rating, Nutsedge, Yellow", 20),
    ("CCCc1nn(-c2ccc(F)c(F)c2)nc1Oc1ccnc(C(F)(F)F)c1", "nutsedge, yellow (yellow nutsedge, Cyperus esculentus)", "Plant response rating, Nutsedge, Yellow", 25),
    ("CCOc1nn(-c2ccc(F)cc2)nc1Cc1ccnc(C(F)(F)F)c1", "nutsedge, yellow (yellow nutsedge, Cyperus esculentus)", "Plant response rating, Nutsedge, Yellow", 0),
    ("Cc1nn(-c2ccc(F)cc2F)nc1Oc1ccnc(C(F)(F)F)c1", "nutsedge, yellow (yellow nutsedge, Cyperus esculentus)", "Plant response rating, Nutsedge, Yellow", 0),
]

###

- Tested on: ryegrass, Italian (Italian ryegrass, Lolium multiflorum)
- assay: Test D pre-/postemergence: ryegrass, Italian
- Assay type: in vivo
- study conditions: Postemergence, 31 g ai/ha; scale 0 to 100 (0 no effect, 100 complete control)
- Text: […] Treated plants and controls were maintained in a controlled growth environment for 14 to 21 days after which time all species were compared to controls and visually evaluated. […]
quantity name: Plant response rating: Ryegrass, Italian

# compound, recorded number
data = [
    ("Cc1nn(-c2ccc(C(F)(F)F)cn2)nc1Oc1ccnc(C(F)(F)F)c1 [Compound 23]", 10),
    ("COc1nn(-c2ccc(C(F)(F)F)cc2)nc1Cc1ccnc(C(F)F)c1 [Compound 138]", 25),
    ("Cc1nn(-c2ccc(C(F)(F)F)c(F)c2)nc1Oc1ccnc(C(F)(F)F)c1 [Compound 148]", 15),
    ("Cc1nn(-c2ccc(C(F)(F)F)cc2)nc1Oc1ccnc(C(F)(F)F)c1 [Compound 120]", 5),
]
